- ASSAY TARGET: human JAK1 (a.a. 837-1142) (Homo sapiens)
- Construct: human JAK1 (a.a. 837-1142); His tag (N); made in house; host or cells: insect cells (baculovirus)
- Sequence (P23458 849-1154): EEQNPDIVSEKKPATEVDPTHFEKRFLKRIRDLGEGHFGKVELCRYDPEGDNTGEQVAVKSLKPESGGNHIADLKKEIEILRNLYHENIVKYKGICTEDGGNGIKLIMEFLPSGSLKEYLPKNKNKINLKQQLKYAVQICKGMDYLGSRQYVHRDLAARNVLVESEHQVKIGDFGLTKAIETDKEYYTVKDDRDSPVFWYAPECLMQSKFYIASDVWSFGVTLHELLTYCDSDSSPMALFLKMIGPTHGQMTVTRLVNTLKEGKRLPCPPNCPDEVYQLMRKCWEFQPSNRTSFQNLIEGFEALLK
- TEST NAME: In vitro JAK kinase assay (HTRF, phosphorylation of a biotinylated peptide), JAK1
- Assay type: biochemical
- SETTINGS: Table D1; read-out: JAK1 IC50
Where a name gives a salt, the structure may show the parent alone.
PROPERTY LABEL: IC50 (nM)

{"MOLECULE": "O=C(C[C@@H]1CCCNC1)Nc1ccc2cc1CCc1cncc(c1)Nc1ncc(Cl)c(n1)N2", "PROPERTY LABEL": "IC50", "QUANTITATIVE RESULT": 5.8}
{"MOLECULE": "O=C(C[C@@H]1CCN(C(=O)Nc2ccccc2F)C1)Nc1ccc2cc1CCc1cncc(c1)Nc1ncc(Cl)c(n1)N2 [Example D135, bis(trifluoroacetate)]", "PROPERTY LABEL": "IC50", "QUANTITATIVE RESULT": 60}
{"MOLECULE": "Clc1cnc2nc1Nc1cccc(c1)SCc1cccc(c1)N2 [Example D1, trifluoroacetate]", "PROPERTY LABEL": "IC50", "QUANTITATIVE RESULT": 13}
{"MOLECULE": "O=C(CC1CN(C(=O)c2nccs2)C1)Nc1ccc2cc1CCc1cncc(c1)Nc1ncc(Cl)c(n1)N2 [Example D145, bis(trifluoroacetate)]", "PROPERTY LABEL": "IC50", "QUANTITATIVE RESULT": 31}

A: O=C(c1ccc(C(F)(F)F)cc1)N1CCN(c2ccc3cc2CCc2cccc(c2)Nc2ncc(Cl)c(n2)N3)CC1 [Example D96, bis(trifluoroacetate)]
B: N#Cc1ccccc1NC(=O)N1CC[C@H](CC(=O)Nc2ccc3cc2CCc2cncc(c2)Nc2ncc(Cl)c(n2)N3)C1 [Example D100, bis(trifluoroacetate)]
query: Could you tell me which of A and B has the lower IC50 reading? // respond with label for picked entry
result: B

###

- ASSAY TARGET: human JAK2 (a.a. 828-1132) (Homo sapiens, UniProt O60674)
- Construct: JAK2 (a.a. 828-1132); His tag (N); made in house; host or cells: insect cells (baculovirus)
- Sequence (O60674 828-1132): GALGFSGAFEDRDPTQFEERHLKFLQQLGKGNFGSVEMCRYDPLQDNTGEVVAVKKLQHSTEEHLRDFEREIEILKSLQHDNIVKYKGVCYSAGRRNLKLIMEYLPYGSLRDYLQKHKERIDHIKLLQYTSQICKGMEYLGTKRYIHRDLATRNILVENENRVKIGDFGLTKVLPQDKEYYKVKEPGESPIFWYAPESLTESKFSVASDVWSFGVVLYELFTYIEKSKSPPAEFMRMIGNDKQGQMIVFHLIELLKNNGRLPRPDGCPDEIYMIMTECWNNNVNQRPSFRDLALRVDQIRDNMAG
- TEST NAME: In vitro JAK kinase assay (HTRF, phosphorylation of a biotinylated peptide), JAK2
- Assay type: biochemical
- SETTINGS: Table B1
pIC50: −log10 of the molar value. Structures can show the parent of a compound that is named as a salt.
PROPERTY LABEL: pIC50

A: Cc1occc1NC(=O)Nc1ccc2cc1CCc1cccc(c1)Nc1ncc(Cl)c(n1)N2 [Example B118, trifluoroacetate]
B: O=C(Nc1ccc(Cl)nc1)Nc1ccc2cc1CCc1cccc(c1)Nc1ncc(Cl)c(n1)N2 [Example B121, bis(trifluoroacetate)]
C: Clc1cnc2nc1Nc1ccc(Nc3nccc(-c4ccccc4)n3)c(c1)CCc1cccc(c1)N2 [Example B279, tris(trifluoroacetate)]
query: Arrange by pIC50, high to low. Would you mind listing the labels in the order requested?
result: A, B, C
(A: 8.68, B: 8.10, C: 6.80)

###

- ASSAY TARGET: Recombinant Human Anaplastic Lymphoma Kinase (Homo sapiens, UniProt Q9UM73)
- Construct: purchased Invitrogen, Carlsbad, Calif
- Sequence (Q9UM73 19-1620): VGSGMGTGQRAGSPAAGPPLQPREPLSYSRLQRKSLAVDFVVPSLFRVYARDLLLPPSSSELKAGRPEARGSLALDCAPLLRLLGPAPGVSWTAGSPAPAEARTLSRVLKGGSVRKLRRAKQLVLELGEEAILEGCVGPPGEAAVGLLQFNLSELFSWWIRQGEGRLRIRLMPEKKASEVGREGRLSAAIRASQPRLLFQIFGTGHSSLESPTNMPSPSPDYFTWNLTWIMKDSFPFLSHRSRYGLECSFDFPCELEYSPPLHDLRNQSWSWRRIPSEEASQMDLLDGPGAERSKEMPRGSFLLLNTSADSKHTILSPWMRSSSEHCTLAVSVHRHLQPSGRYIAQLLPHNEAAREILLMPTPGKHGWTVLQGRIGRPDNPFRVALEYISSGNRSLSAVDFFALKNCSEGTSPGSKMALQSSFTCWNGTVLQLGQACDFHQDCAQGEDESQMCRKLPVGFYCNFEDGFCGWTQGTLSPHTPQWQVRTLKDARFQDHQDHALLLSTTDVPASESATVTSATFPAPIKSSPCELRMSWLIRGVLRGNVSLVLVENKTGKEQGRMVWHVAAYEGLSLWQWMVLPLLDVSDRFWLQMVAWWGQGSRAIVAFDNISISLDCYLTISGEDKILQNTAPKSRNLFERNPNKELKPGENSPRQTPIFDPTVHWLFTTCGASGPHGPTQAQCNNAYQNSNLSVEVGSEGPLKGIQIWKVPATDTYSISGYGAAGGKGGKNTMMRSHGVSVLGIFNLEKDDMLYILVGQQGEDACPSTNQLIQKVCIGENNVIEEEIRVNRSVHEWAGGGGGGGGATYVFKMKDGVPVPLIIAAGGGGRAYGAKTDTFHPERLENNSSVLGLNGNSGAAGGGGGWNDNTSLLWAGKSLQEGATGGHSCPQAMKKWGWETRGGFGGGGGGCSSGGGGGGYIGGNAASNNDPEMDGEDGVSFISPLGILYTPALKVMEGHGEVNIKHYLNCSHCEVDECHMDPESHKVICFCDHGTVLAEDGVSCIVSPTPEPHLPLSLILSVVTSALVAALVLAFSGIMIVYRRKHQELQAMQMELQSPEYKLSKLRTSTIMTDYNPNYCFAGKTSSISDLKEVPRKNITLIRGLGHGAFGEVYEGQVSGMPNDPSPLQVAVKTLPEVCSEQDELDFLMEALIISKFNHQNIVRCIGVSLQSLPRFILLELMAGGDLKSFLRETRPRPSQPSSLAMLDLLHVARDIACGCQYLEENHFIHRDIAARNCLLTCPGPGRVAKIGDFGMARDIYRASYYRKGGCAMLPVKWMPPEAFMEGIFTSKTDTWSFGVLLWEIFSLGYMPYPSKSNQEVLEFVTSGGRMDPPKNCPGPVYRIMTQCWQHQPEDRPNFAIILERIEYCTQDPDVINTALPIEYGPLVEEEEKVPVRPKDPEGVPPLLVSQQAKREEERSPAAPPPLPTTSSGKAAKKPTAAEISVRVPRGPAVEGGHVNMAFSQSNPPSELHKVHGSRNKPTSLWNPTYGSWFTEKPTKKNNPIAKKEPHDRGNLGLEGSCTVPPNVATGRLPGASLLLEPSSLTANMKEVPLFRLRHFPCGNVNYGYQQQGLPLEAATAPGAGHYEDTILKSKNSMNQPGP
- TEST NAME: ALK HTRF kinase assay
- Format: biochemical
- SETTINGS: compound at a concentration of 500 nM or 1 mM (not specified); cells shown as percentage
Counter-ions that a name gives are not always drawn.
PROPERTY LABEL: ALK % of inhibition at a concentration of 500 nM or 1 mM (%)

Example cases with answers are listed next.
{"COMPOUND": "O=C(Nc1nnn[nH]1)Nc1ccc2cc1CCc1cccc(c1)Nc1ncc(Cl)c(n1)N2 [Example B251, trifluoroacetate]", "MEASURE UNIT": "%", "QUANTITATIVE RESULT": 44}
{"COMPOUND": "O=C(Nc1ccc2cc1CCc1cncc(c1)Nc1ncc(Cl)c(n1)N2)N[C@H]1CCNC1 [Example B25, trihydrochloride]", "MEASURE UNIT": "%", "QUANTITATIVE RESULT": 14}

a: CC(C)(C)OC(=O)N1CC[C@@H](NC(=O)Nc2ccc3cc2CCc2cccc(c2)Nc2ncc(Cl)c(n2)N3)C1 [Example B174]
b: CC(C)(C)OC(=O)N1CCC(NC(=O)Nc2ccc3cc2CCc2cccc(c2)Nc2ncc(Cl)c(n2)N3)CC1 [Example B180]
query: Thinking about recorded ALK % of inhibition at a concentration of 500 nM or 1 mM values, which is higher, a or b ? // respond with label for picked entry
result: a
(a: 12%, b: 3.5%)

###

- ASSAY TARGET: human JAK3 (a.a. 781-1124) (Homo sapiens, UniProt P52333)
- Construct: JAK3 (a.a. 781-1124); His tag (N); made in house; host or cells: insect cells (baculovirus)
- Sequence (P52333 781-1124): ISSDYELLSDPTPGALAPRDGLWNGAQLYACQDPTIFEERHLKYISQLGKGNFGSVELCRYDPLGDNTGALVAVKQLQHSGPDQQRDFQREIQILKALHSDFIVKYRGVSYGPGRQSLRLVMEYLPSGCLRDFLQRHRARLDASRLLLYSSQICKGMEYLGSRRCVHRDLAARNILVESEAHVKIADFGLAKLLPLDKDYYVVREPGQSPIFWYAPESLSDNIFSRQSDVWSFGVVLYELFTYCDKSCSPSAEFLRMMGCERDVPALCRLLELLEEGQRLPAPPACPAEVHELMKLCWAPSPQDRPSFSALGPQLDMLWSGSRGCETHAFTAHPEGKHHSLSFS
- TEST NAME: In vitro JAK kinase assay (HTRF, phosphorylation of a biotinylated peptide), JAK3
- Assay type: biochemical
- SETTINGS: method AA1 (3 μM ATP) or AA2 (1000 μM ATP), not stated per value
pIC50: −log10 of the molar value. Structures can show the parent of a compound that is named as a salt.
PROPERTY LABEL: pIC50

A: O=C(Nc1ccc2cc1CCc1cccc(c1)Nc1ncc(Cl)c(n1)N2)[C@@H]1CCCN1 [Example A110, bis(trifluoroacetate)]
B: CC(C)(C)NC(=O)N1CCC(CC(=O)Nc2ccc3cc2CCc2cncc(c2)Nc2ncc(Cl)c(n2)N3)CC1 [Example A113, bis(trifluoroacetate)]
C: N#Cc1ccc(NC(=O)N2CCN(C(=O)COc3ccc4cc3CCc3cccc(c3)Nc3ncc(Cl)c(n3)N4)CC2)cc1 [Example A9, trifluoroacetate]
query: Arrange by pIC50, high to low. Would you mind listing the labels in the order requested?
result: A, C, B

1: CCS(=O)(=O)N1CCC(CC(=O)Nc2ccc3cc2CCc2cccc(c2)Nc2ncc(Cl)c(n2)N3)CC1 [Example A83, trifluoroacetate]
2: Cc1cc(C(=O)N2CCC(CCC(=O)Nc3ccc4cc3CCc3cncc(c3)Nc3ncc(Cl)c(n3)N4)CC2)no1 [Example A125, bis(trifluoroacetate)]
query: Thinking about recorded pIC50 values, which is higher, 1 or 2 ? // respond with label for picked entry
result: 1

###

- ASSAY TARGET: human JAK3 (a.a. 781-1124) (Homo sapiens, UniProt P52333)
- Construct: JAK3 (a.a. 781-1124); His tag (N); made in house; host or cells: insect cells (baculovirus)
- TEST NAME: In vitro JAK kinase assay (HTRF, phosphorylation of a biotinylated peptide), JAK3
- Assay type: biochemical
- SETTINGS: method AA1 (3 μM ATP) or AA2 (1000 μM ATP), not stated per value
Counter-ions that a name gives are not always drawn.
PROPERTY LABEL: IC50 (nM)

a: CC(C)(C)NC(=O)N1CCC(CC(=O)Nc2ccc3cc2CCc2cccc(c2)Nc2ncc(Cl)c(n2)N3)CC1 [Example A85, trifluoroacetate]
b: NS(=O)(=O)N1CCC(CC(=O)Nc2ccc3cc2CCc2cccc(c2)Nc2ncc(Cl)c(n2)N3)CC1 [Example A75, trifluoroacetate]
query: Could you tell me which of a and b has the lower IC50 reading? // respond with label for picked entry
result: b

###

- ASSAY TARGET: Recombinant Human Anaplastic Lymphoma Kinase (Homo sapiens)
- Construct: purchased Invitrogen, Carlsbad, Calif
- TEST NAME: ALK HTRF kinase assay
- Assay type: biochemical
- SETTINGS: compound at a concentration of 500 nM or 1 mM (not specified); cells shown as percentage
Counter-ions that a name gives are not always drawn.
PROPERTY LABEL: ALK % of inhibition at a concentration of 500 nM or 1 mM (%)

{"MOLECULE": "CN(C)C(=O)Nc1ccc2cc1CCc1cccc(c1)Nc1ncc(Cl)c(n1)N2 [Example B239, trifluoroacetate]", "QUANTITATIVE RESULT": 21}
{"MOLECULE": "O=C(Nc1cc2cc(c1)Nc1nc(ncc1Cl)Nc1cccc(c1)CC2)NC1CCCC1 [Example B215, trifluoroacetate]", "QUANTITATIVE RESULT": 31}
{"MOLECULE": "CCCc1ccccc1NC(=O)Nc1ccc2cc1CCc1cccc(c1)Nc1ncc(Cl)c(n1)N2 [Example B105, trifluoroacetate]", "QUANTITATIVE RESULT": 52}
{"MOLECULE": "CN(C(=O)Nc1ccc2cc1CCc1cccc(c1)Nc1ncc(Cl)c(n1)N2)[C@H]1CCN(Cc2ccccc2)C1", "QUANTITATIVE RESULT": 30}
{"MOLECULE": "CN1CC[C@H](NC(=O)Nc2ccc3cc2CCc2cccc(c2)Nc2ncc(Cl)c(n2)N3)C1 [Example B261, bis(trifluoroacetate)]", "QUANTITATIVE RESULT": 24}

1: O=C(Nc1ccc2cc1CCc1cccc(c1)Nc1ncc(Cl)c(n1)N2)NC1CCCCC1 [Example B119, trifluoroacetate]
2: CC1(C)Cc2cccc(NC(=O)Nc3ccc4cc3CCc3cccc(c3)Nc3ncc(Cl)c(n3)N4)c2O1 [Example B129, trifluoroacetate]
query: Could you tell me which of 1 and 2 has the lower ALK % of inhibition at a concentration of 500 nM or 1 mM reading? // respond with label for picked entry
result: 2
(2: 7.3%, 1: 19%)
